Assay system: APOL1 G1 (Homo sapiens, UniProt O14791, I384M/S342G)
Sequence (O14791 28-398 S342G/I384M): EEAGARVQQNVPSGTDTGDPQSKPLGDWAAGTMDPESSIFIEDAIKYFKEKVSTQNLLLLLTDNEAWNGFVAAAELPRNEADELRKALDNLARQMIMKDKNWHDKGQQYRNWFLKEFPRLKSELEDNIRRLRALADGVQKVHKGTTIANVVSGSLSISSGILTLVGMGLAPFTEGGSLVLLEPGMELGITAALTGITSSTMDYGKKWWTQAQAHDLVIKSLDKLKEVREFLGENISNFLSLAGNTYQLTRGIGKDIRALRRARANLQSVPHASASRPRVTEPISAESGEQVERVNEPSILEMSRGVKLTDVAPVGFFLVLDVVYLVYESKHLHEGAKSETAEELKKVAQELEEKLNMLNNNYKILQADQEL
Method summary: Trypanosoma brucei brucei Lysis Assay Using APOL1 Recombinant Protein (AlamarBlue viability readout)
Format: cell-based
Experimental conditions: Trypanosome Assay; read-out: Trypanosome Assay Max Activity (%)
Experimental endpoint: Emax (%)
Express it in %; write the number only.

Data request: Emax lookup needed for `[2H]C1([2H])O[C@@]2(C[C@@H](c3cn(C)nn3)N[C@@H](C)C2)c2sc(Cl)cc2[C@]1([2H])O` , thanks.
Data returned: 104

Data request: Emax lookup needed for CC1CC2(CC(C3CCOCC3)N1)OCCc1cc(Cl)sc12 (mixture of isomers) , thanks.
Data returned: 104

Data request: Emax lookup needed for CC(=O)Nc1ccc(C2CC3(CC(C)N2)OCCc2cc(Cl)sc23)cn1 (stereo not shown) , thanks.
Data returned: 114

Data request: Emax lookup needed for CCc1c[nH]c([C@@H]2C[C@]3(C[C@H](C)N2)OCCc2cc(Cl)sc23)n1 (racemic) , thanks.
Data returned: 89.5
